# Tested on: LNCaP tumor-bearing male CB-17 SCID mice
# EXPERIMENT SUMMARY: Biodistribution studies 24 h p.i.
# EXPERIMENTAL CONTEXT: mean
READOUT: uptake in intestine (% iD/g)
# output: bare number, implied unit % iD/g

Example results:
- COMPOUND: "CC(C)(C)[Si](F)(c1ccc(C(=O)NC[C@@H](NC(=O)[C@@H](CCCNC(N)=O)NC(=O)CC[C@@H](C(=O)O)N2CCN(CC(=O)O)CCN(CC(=O)O)CCN(CC(=O)O)CC2)C(=O)NCCCCCC(=O)NCCC[C@@H](NC(=O)CC[C@H](NC(=O)N[C@@H](CCC(=O)O)C(=O)O)C(=O)O)C(=O)O)cc1)C(C)(C)C"
  ASSAYED SYSTEM: "LNCaP tumor-bearing male CB-17 SCID mice"
  uptake in intestine / % iD/g: 0.1006
- COMPOUND: "CC(C)(C)[Si](F)(c1ccc(C(=O)NCC(NC(=O)CCC(C(=O)O)N2CCN(CC(=O)O)CCN(CC(=O)O)CCN(CC(=O)O)CC2)C(=O)NC(CN)C(=O)NCCC(=O)NCCC(=O)NCCCC(NC(=O)CCC(NC(=O)NC(CCC(=O)O)C(=O)O)C(=O)O)C(=O)O)cc1)C(C)(C)C (stereo not shown)"
  ASSAYED SYSTEM: "LNCaP tumor-bearing male CB-17 SCID mice"
  uptake in intestine / % iD/g: 0.2229
- COMPOUND: "CC(C)(C)[Si](F)(c1ccc(C(=O)NC[C@@H](NC(=O)CN2CCN(CC(=O)O)CCN(CC(=O)O)CCN(CC(=O)O)CC2)C(=O)N[C@H](CO)C(=O)NCCC(=O)NCCC(=O)NCCC[C@@H](NC(=O)CC[C@H](NC(=O)N[C@@H](CCC(=O)O)C(=O)O)C(=O)O)C(=O)O)cc1)C(C)(C)C"
  ASSAYED SYSTEM: "LNCaP tumor-bearing male CB-17 SCID mice"
  uptake in intestine / % iD/g: 0.3354

// moving on: another record for uptake in intestine
# lookup: uptake in intestine of CC(C)(C)[Si](F)(c1ccc(C(=O)NC[C@@H](NC(=O)[C@@H](CCCNC(N)=O)NC(=O)CC[C@H](C(=O)O)N2CCN(CC(=O)O)CCN(CC(=O)O)CCN(CC(=O)O)CC2)C(=O)NCCCCCC(=O)NCCC[C@@H](NC(=O)CC[C@H](NC(=O)N[C@@H](CCC(=O)O)C(=O)O)C(=O)O)C(=O)O)cc1)C(C)(C)C
0.1103
